Study Target: T1, cMetSEMA-567His8 (human, UniProt P08581 25-567, limits assumed)
T1 construct: In the TR-FRET assay detected by anti-6xhis Europium3+; also called cMetSEMAHis; SEMA domain of c-Met; not shown: C-terminal His tag; the text says His9, the construct name says His8
T1 sequence (P08581 25-567 limits assumed, form in doubt): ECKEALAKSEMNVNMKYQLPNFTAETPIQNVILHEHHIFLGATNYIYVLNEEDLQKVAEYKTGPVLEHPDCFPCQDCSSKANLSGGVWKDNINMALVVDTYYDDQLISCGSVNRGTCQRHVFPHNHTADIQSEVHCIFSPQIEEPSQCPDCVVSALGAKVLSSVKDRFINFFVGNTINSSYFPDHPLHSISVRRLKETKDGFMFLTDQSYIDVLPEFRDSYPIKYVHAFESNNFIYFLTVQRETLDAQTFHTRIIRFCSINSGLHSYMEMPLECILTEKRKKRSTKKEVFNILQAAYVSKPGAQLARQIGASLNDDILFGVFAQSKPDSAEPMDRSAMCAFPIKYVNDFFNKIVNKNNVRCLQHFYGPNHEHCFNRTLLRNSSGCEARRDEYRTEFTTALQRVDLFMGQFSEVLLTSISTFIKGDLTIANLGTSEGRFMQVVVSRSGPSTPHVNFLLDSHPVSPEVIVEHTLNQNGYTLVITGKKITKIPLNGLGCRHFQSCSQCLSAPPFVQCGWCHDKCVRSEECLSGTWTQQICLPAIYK
Protocol Text: TR-FRET; displacement of AlexaFluor-647-HGF from cMetSEMA-567His8
IC50 for assorted binders
Give the value in µg/mL but do not write µg/mL after it.

Consider the reported IC50 for these binders:
Binder: anti-c-Met HuMab 098 (IgG1) (antibody, V domains shown, also called TH1016-098; PC1016-098) VH: QVQLVQSGAEVKKPGASVKVSCKASGYTFTNFGISWVRQAPGQGLEWMGWISAFNGHTDYSQKVQGRVTMTTDTSTSTAYMELRSLRSDDTAVFYCARSHYYGSGSPFDYWGQGTLVTVSS VL: DIQMTQSPSSLSASVGDRVTITCRASQGISNWLAWYQQKPEKAPKSLIYAASSLQSGVPSRFSGSGSGTDFTLTISSLQPEDFATYYCHQYKSYPWTFGQGTKVEIK
Property Name: IC50
Quantitative Readout: 0.55
//
Binder: anti-c-Met HuMab 181 (IgG1) (antibody, V domains shown, also called TH1016-181; PC1016-181) VH: QVQLVQSGAEVKKPGASVKVSCKASGYTFTSYGISWVRQAPGQGLEWMGWISTYNGYTNYAQKLQGRVTMTTDTSTSTAYMELRSLRSDDTAVYYCARDLRGTAYFDYWGQGTLVTVSS VL: DIQMTQSPSSVSASVGDRVTITCRASQGISNWLAWYQHKPGKAPKLLIYAASSLLSGVPSRFSGSGSGTDFTLTISSLQPEDFATYYCQQANSFPITFGQGTRLEIK
Property Name: IC50
Quantitative Readout: 0.34

Consider the additional binder presented here.
Inquiry: For the binder IgG1-024 (antibody, V domains shown, also called TH1016-024; PC1016-024) VH: EVQLLESGGGLVQPGGSLRLSCVASGFTFSSYAMSWVRQAPGKGLEWVSAISGSSGGSTYYVDSVKGRFTISRANSKNTLYLQMNSLRAEDTAVYYCAKDLDRGWMGYFGYWGQGTLVTVSS VL: DIQMTQSPSSVSASVGDRVTITCRASQGISSWLAWYQHKPGKAPKLLIYAASSLQSGVPSRFSGSGSGTDFTLTISSLQPEDFATYYCQQANSFPTFGQGTRLEIK , give its measured IC50 value.
Reply text: 0.39

The values you see were collected from patent US20150329642A1.
